I'd appreciate it if you could supply Cell Uptake values for the items below.
# Tested on: A172 cell line (human brain glioblastoma, low S phase)
# experimentDescription: Cancer cell uptake, A172; also: unit not given here
# runParameters: (iii) A172
Answers are plain numbers.

Answered examples (4):
>>> val("Cc1cn([C@@H]2O[C@H](CO)C(O)C2O)c(=O)n(CCF)c1=O (some centres unmarked) [Ta-11]")
0.006
>>> val("Cc1cn([C@H]2CC(F)[C@@H](CO)O2)c(=O)n(CCF)c1=O (some centres unmarked) [Ta-4F]")
0.067
>>> val("Cc1cn([C@@H]2O[C@H](CO)C(O)C2OCCF)c(=O)[nH]c1=O (some centres unmarked)")
0.004
>>> val("Cc1cn([C@H]2CC(O)[C@@H](CO)O2)c(=O)n(Cc2cn([C@H](C(=O)NCc3cc(F)ccn3)C(C)C)nn2)c1=O (some centres unmarked)")
0.093

List the reported Cell Uptake of each molecule below.
1. Cc1cn([C@H]2CC(O)[C@@H](CO)O2)c(=O)n(CCF)c1=O (some centres unmarked) [Ta-4, 3-N-(2′-[^18F]fluoroethyl)-thymidine]
2. Cc1cn([C@H]2CC(O)[C@@H](CO)O2)c(=O)n(CC(O)CF)c1=O (some centres unmarked)
3. Cc1cn([C@@H]2O[C@H](CO)C(O)C2O)c(=O)n(CCF)c1=O (some centres unmarked) [Ta-8]

0.142
0.017
0.018

What value of measured Cell Uptake is listed for Cc1cn([C@@H]2O[C@H](CO)C(O)C2F)c(=O)[nH]c1=O (some centres unmarked) [FMAU, reference compound] ?
0.015
